molecular target: GLP-1 Receptor (Homo sapiens); test: GLP-1R agonist cAMP stimulation assay (HEK293/GLP1R/CRE-LUC cells, Cisbio cAMP dynamic 2 kit); details: HEK293/CRE-Luc cell line stably expressing the GLP-1 Receptor; 1000 cells/well; 30 min at 37° C.; 0.5 mM IBMX, 0.1% BSA; read-out: GLP1R cAMP Stimulation DR: EC50
MEASURED PROPERTY: pEC50
Please treat pEC50 as minus the base-10 logarithm of the molar concentration.

Quick check: pEC50 on GLP-1 Receptor (Homo sapiens), item CC1(c2ccc(Cl)cc2F)Oc2cccc(C3CCN(Cc4ncc(-c5nnc(C(F)(F)F)[nH]5)cc4CCS(C)(=O)=O)CC3)c2O1 (centres unmarked) [Compound 267] ? 8.33

Quick check: pEC50 on GLP-1 Receptor (Homo sapiens), item CC1(c2ccc(Cl)cc2F)Oc2cccc(C3CCN(Cc4ncc(CCC(=O)O)n4CCOC(F)F)CC3)c2O1 (centres unmarked) [Compound 238] ? 9.37

Quick check: pEC50 on GLP-1 Receptor (Homo sapiens), item C/C(=C\c1cnc(CN2CCC(c3cccc(OCc4ccc(Cl)cc4F)n3)CC2)n1C[C@@H]1CCO1)C(=O)O [Compound 218a] ? 8.85

Quick check: pEC50 on GLP-1 Receptor (Homo sapiens), item COC1(Cn2c(/C=C/C(=O)O)cnc2CN2CCC(c3cccc4c3OC(C)(c3ccc(Cl)cc3F)O4)CC2)CCC1 (centres unmarked) [Compound 166] ? 10.16

Quick check: pEC50 on GLP-1 Receptor (Homo sapiens), item O=C(O)C1CC1c1cnc(CN2CCC(c3cccc4c3OC[C@@H](c3ccc(Cl)cc3)O4)CC2)n1C[C@@H]1CCO1 (some centres unmarked) [Compound 248] ? 7.46

Quick check: pEC50 on GLP-1 Receptor (Homo sapiens), item O=C(O)COc1ccc(CN2CCC(c3cccc(OCc4ccc(Cl)cc4F)n3)CC2)nc1 [Compound 119] ? 5.83

Quick check: pEC50 on GLP-1 Receptor (Homo sapiens), item Cc1cc(-c2n[nH]c(=O)o2)cnc1CN1CCC(c2cccc3c2OC(C)(c2ccc(Cl)cc2F)O3)CC1 (centres unmarked) [Compound 254] ? 8.00

Quick check: pEC50 on GLP-1 Receptor (Homo sapiens), item CC1(c2ccc(Cl)cc2F)Oc2cccc(N3CCN(Cc4ncc(/C=C/C(=O)O)n4C[C@@H]4CCO4)CC3)c2O1 (some centres unmarked) [Compound 179] ? 10.44

Quick check: pEC50 on GLP-1 Receptor (Homo sapiens), item COCCn1c(CCC(=O)O)cnc1CN1CCC(c2cccc3c2OC(C)(c2ccc(Cl)cc2F)O3)CC1 (centres unmarked) [Compound 237] ? 9.54

Quick check: pEC50 on GLP-1 Receptor (Homo sapiens), item C[C@]1(c2ccc(Cl)cc2F)Oc2cccc(C3CCN(Cc4ncc(-c5nnc(C(F)(F)F)[nH]5)cc4CC4(C#N)CC4)CC3)c2O1 [Compound 258] ? 11.21

Quick check: pEC50 on GLP-1 Receptor (Homo sapiens), item Cn1c(/C=C/C(=O)O)cnc1CN1CCC(c2cccc3c2OC(C)(c2ccc(Cl)cc2F)O3)CC1 (centres unmarked) [Compound 164] ? 9.48

Quick check: pEC50 on GLP-1 Receptor (Homo sapiens), item CCn1cncc1Cn1c(/C=C(\C)C(=O)O)cnc1CN1CCC(c2cccc3c2OC[C@@H](c2ccc(Cl)cc2)O3)CC1 [Compound 208a] ? 10.96

Quick check: pEC50 on GLP-1 Receptor (Homo sapiens), item COCCc1cc(-c2nnc(C(F)(F)F)[nH]2)cnc1CN1CCC(c2cccc3c2OC(C)(c2ccc(Cl)cc2)O3)CC1 (centres unmarked) [Compound 261] ? 8.28

* * *

target: UniProt:P43220; test: GLP-1R agonist cAMP stimulation assay (HEK293/GLP1R/CRE-LUC cells, Cisbio cAMP dynamic 2 kit); settings: HEK293/CRE-Luc cell line stably expressing the GLP-1 Receptor; 1000 cells/well; 30 min at 37° C.; 0.5 mM IBMX, 0.1% BSA; read-out: GLP1R cAMP Stimulation DR: EC50
MEASURED PROPERTY: pEC50
Please treat pEC50 as minus the base-10 logarithm of the molar concentration.

Quick check: pEC50 on UniProt:P43220, item CCOCCc1cc(-c2nnc(C(F)(F)F)[nH]2)cnc1CN1CCC(c2cccc3c2O[C@@](C)(c2ccc(Cl)cc2F)O3)CC1 [Compound 287] ? 9.06

Quick check: pEC50 on UniProt:P43220, item CC1(c2ccc(Cl)cc2F)Oc2cccc(C3CCN(Cc4ncc(/C=C/C(=O)O)n4Cc4ccccc4)CC3)c2O1 (stereo not drawn) [Compound 151] ? 10.37

Quick check: pEC50 on UniProt:P43220, item CS(=O)(=O)CCn1c(/C=C/C(=O)O)cnc1CN1CCC(c2cccc(OCc3ccc(Cl)cc3F)n2)CC1 [Compound 212] ? 8.19

* * *

target: GLP-1 Receptor (Homo sapiens); assay: GLP-1R agonist cAMP stimulation assay (HEK293/GLP1R/CRE-LUC cells, Cisbio cAMP dynamic 2 kit); conditions: HEK293/CRE-Luc cell line stably expressing the GLP-1 Receptor; 1000 cells/well; 30 min at 37° C.; 0.5 mM IBMX, 0.1% BSA; read-out: GLP1R cAMP Stimulation DR: EC50
pEC50: −log10 of the molar value.
# cutoff 9 applies to pEC50; >= gives yes (1), < gives no (0)

Quick check, pEC50 >= 9? C[C@]1(c2ccc(Cl)cc2F)Oc2cccc(C3CCN(Cc4ncc(/C=C/C(=O)O)n4C[C@@H]4CCO4)CC3)c2O1 [Compound 135a] yes (1)

Quick check, pEC50 >= 9? COCCn1c(/C=C(\C)C(=O)O)nnc1CN1CCC(c2cccc(OCc3ccc(Cl)cc3F)n2)CC1 [Compound 224] no (0)

Quick check, pEC50 >= 9? O=C(O)/C=C/c1nnc(CN2CCC(c3cccc(OCc4ccc(Cl)cc4F)n3)CC2)n1CC1CCOCC1 [Compound 233] no (0)

Quick check, pEC50 >= 9? COC1(Cn2c(/C=C/C(=O)O)cnc2CN2CCC(c3cccc4c3OC(C)(c3ccc(Cl)cc3F)O4)CC2)CC1 (centres unmarked) [Compound 196] yes (1)

* * *

Provide the reported log10 EC50 of each item.
target: GLP-1 Receptor (Homo sapiens, UniProt P43220); assay: GLP-1R agonist cAMP stimulation assay (HEK293/GLP1R/CRE-LUC cells, Cisbio cAMP dynamic 2 kit); conditions: HEK293/CRE-Luc cell line stably expressing the GLP-1 Receptor; 1000 cells/well; 30 min at 37° C.; 0.5 mM IBMX, 0.1% BSA; read-out: GLP1R cAMP Stimulation DR: EC50;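 further: compounds tested in half-log serial dilution, cAMP detected with cAMP-d2 and anti-cAMP cryptate antibody reagents after 1 h at room temperature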
Sequence (P43220 24-463, species assumed): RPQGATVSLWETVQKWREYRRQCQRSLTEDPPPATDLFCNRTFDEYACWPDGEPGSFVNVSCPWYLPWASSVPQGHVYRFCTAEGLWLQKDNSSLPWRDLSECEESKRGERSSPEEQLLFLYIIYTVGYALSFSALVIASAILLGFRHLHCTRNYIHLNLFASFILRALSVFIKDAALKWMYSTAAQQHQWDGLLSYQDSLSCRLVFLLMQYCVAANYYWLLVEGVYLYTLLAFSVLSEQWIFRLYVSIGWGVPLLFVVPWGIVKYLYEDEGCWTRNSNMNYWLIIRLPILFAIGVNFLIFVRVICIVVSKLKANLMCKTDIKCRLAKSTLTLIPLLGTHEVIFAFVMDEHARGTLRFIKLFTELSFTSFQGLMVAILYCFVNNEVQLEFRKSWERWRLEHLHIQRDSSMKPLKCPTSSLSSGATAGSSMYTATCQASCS
Values reflect log10 of reported EC50 (nM).

Quick check: log10 EC50 on GLP-1 Receptor (Homo sapiens, UniProt P43220), item CC1(c2ccc(Cl)cc2F)Oc2cccc(C3CCN(Cc4nnc(/C=C/C(=O)O)n4C[C@@H]4CCO4)CC3)c2O1 (stereo partly drawn) [Compound 136a] ? -0.96

Quick check: log10 EC50 on GLP-1 Receptor (Homo sapiens, UniProt P43220), item Cc1cc(-c2nnc(C(F)(F)F)[nH]2)cnc1CN1CCC(c2cccc3c2OC(C)(c2ccc(Cl)cc2F)O3)CC1 (stereo not drawn) ? 0.92

Quick check: log10 EC50 on GLP-1 Receptor (Homo sapiens, UniProt P43220), item CC1(c2ccc(Cl)cc2F)Oc2cccc(C3CCN(Cc4ncc(/C=C/C(=O)O)n4CC4CCC4(F)F)CC3)c2O1 (stereo not drawn) ? -1.19

Quick check: log10 EC50 on GLP-1 Receptor (Homo sapiens, UniProt P43220), item CC1(c2ccc(Cl)cc2F)Oc2cccc(C3CCN(Cc4ncc(/C=C/C(=O)O)n4CC4CN(S(C)(=O)=O)C4)CC3)c2O1 (stereo not drawn) ? 0.81

Quick check: log10 EC50 on GLP-1 Receptor (Homo sapiens, UniProt P43220), item Cc1cc(-c2nnc(C(F)(F)F)[nH]2)cnc1CN1CCC(c2cccc3c2OC(C)(c2ccc(F)cc2)O3)CC1 (stereo not drawn) ? 0.83

Quick check: log10 EC50 on GLP-1 Receptor (Homo sapiens, UniProt P43220), item CC1(c2ccc(Cl)cc2F)Oc2cccc(C3CCN(Cc4ncc(/C=C/C(=O)O)n4Cc4cccc(Cl)c4)CC3)c2O1 (stereo not drawn) ? -1.27

Quick check: log10 EC50 on GLP-1 Receptor (Homo sapiens, UniProt P43220), item COCCc1cc(-c2nnn[nH]2)cnc1CN1CCC(c2cccc3c2OC(C)(c2ccc(Cl)cc2F)O3)CC1 (stereo not drawn) ? 0.70

Quick check: log10 EC50 on GLP-1 Receptor (Homo sapiens, UniProt P43220), item C[C@]1(c2ccc(Cl)cc2F)Oc2cccc(C3CCN(Cc4ncc(/C=C/C(=O)O)n4C[C@@H]4CCS4(=O)=O)CC3)c2O1 (single isomer, unassigned) [Compound 173a] ? -2.16

Quick check: log10 EC50 on GLP-1 Receptor (Homo sapiens, UniProt P43220), item CC1(c2ccc(Cl)cc2F)Oc2cccc(C3CCN(Cc4ncc(/C=C/C(=O)O)n4CC4CCS4(=O)=O)CC3)c2O1 (stereo not drawn) ? -1.85

Quick check: log10 EC50 on GLP-1 Receptor (Homo sapiens, UniProt P43220), item CCn1cncc1Cn1c(/C=C(\C)C(=O)O)cnc1CN1CCC(c2cccc3c2O[C@@](C)(c2ccc(Cl)cc2F)O3)CC1 [Compound 138a] ? -2.64

Quick check: log10 EC50 on GLP-1 Receptor (Homo sapiens, UniProt P43220), item Cc1cc(-c2noc(=O)[nH]2)cnc1CN1CCC(c2cccc3c2OC(C)(c2ccc(Cl)cc2F)O3)CC1 (stereo not drawn) ? 1.04

Quick check: log10 EC50 on GLP-1 Receptor (Homo sapiens, UniProt P43220), item CC1(c2ccc(Cl)cc2F)Oc2cccc(C3CCN(Cc4ncc(/C=C/C(=O)O)n4CC4COC4)CC3)c2O1 (stereo not drawn) ? -1.19

Quick check: log10 EC50 on GLP-1 Receptor (Homo sapiens, UniProt P43220), item Cc1cc(/C=C/C(=O)O)cnc1CN1CCC(c2cccc(OCc3ccc(Cl)cc3F)n2)CC1 ? 2.00

Quick check: log10 EC50 on GLP-1 Receptor (Homo sapiens, UniProt P43220), item O=C(O)/C=C/c1cnc(CN2CCC(c3cccc(OCc4ccc(Cl)cc4F)n3)CC2)n1CC1CCCO1 (stereo not drawn) ? 0.62

Quick check: log10 EC50 on GLP-1 Receptor (Homo sapiens, UniProt P43220), item COC(C)Cn1c(/C=C/C(=O)O)cnc1CN1CCC(c2cccc3c2OC(C)(c2ccc(Cl)cc2F)O3)CC1 (stereo not drawn) ? -1.29
